We begin with a simple list: items and their reported Monkey NPR1 Amax (% of ANP).
Target: monkey NPR1 (Macaca fascicularis)
Sequence (A0A7N9DBT9 entry or part of it): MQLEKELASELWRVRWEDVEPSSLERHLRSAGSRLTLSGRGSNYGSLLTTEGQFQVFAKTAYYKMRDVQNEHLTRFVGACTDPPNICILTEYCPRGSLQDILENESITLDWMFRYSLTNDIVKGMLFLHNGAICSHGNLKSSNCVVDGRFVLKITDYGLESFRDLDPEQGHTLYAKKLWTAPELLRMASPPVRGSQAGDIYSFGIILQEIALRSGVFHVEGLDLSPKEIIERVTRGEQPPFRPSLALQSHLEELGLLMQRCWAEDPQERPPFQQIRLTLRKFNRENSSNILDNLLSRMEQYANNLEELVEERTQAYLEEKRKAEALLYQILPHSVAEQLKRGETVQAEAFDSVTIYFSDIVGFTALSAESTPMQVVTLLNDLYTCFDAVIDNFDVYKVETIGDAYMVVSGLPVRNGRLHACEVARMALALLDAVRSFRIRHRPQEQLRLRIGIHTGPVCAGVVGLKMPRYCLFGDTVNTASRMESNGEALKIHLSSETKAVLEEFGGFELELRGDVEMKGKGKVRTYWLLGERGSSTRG
Experiment: Cellular cGMP production assay, monkey NPR1 expressing CHO-K1 cells (CisBio HTRF)
Type: cell-based
Conditions: maximum cGMP production as percentage of the maximum cGMP produced with ANP, monkey NPR1 CHO-K1 cells

These solved cases illustrate the format of a correct answer.
CC[C@@H]1CCCCN1C[C@H](Nc1nc(N[C@H](CC)[C@H]2CC[C@H](C(=O)O)CC2)nc2c1C[C@H](c1ccccc1)CC2)c1cnn(C)c1 ... 101.912 % of ANP
CC[C@H]([C@H]1CC[C@H](C(=O)O)CC1)N(C)c1nc2c(c(N[C@@H](CN3C4CCCC3CCC4)c3cnn(CC)c3)n1)C[C@H](c1cccc(F)c1)CC2 ... 100.607 % of ANP
CC[C@@H](N(C)c1nc2c(c(N[C@@H](CN3CCC[C@H](C)C3)c3cnn(C)c3)n1)C[C@H](c1cccc(F)c1)CC2)C12CC(C(=O)O)(C1)C2 ... 95.667 % of ANP
CC[C@@H](N(C)c1nc2c(c(N[C@@H](CN3CCC[C@H](C)C3)c3cnn(C)c3C)n1)C[C@H](c1cccc(F)c1)CC2)C12CC(C(=O)O)(C1)C2 ... 101.294 % of ANP
CC[C@H]([C@H]1CC[C@H](C(=O)O)CC1)N(C)c1nc2c(c(N[C@@H](CN3CCC[C@@H](C)C3)c3cnn(C)c3)n1)C[C@H](c1ccccc1)CC2 ... 114.072 % of ANP

Task: Fill in: Monkey NPR1 Amax (% of ANP) of `CC[C@H]([C@H]1CC[C@H](C(=O)O)CC1)N(C)c1nc2c(c(N[C@@H](CN3CCCC[C@@H]3CO)c3cnn(C)c3)n1)C[C@H](c1ccccc1)CC2` is ___
Result: 164.167 % of ANP

Task: Need Monkey NPR1 Amax (% of ANP), item `CC[C@@H](Nc1nc2c(c(N[C@@H](CN3CCCC[C@@H]3C)c3cnn(C)c3)n1)C[C@H](c1ccccc1)CC2)[C@H]1CC[C@H](C(=O)O)CC1`
Result: 102.761 % of ANP

Task: So what's the measured Monkey NPR1 Amax (% of ANP) for this one? `CC[C@@H](Nc1nc2c(c(N[C@@H](CN3CCC[C@H](C)C3)c3cnn(C(C)C)c3)n1)C[C@H](c1ccccc1)CC2)[C@H]1CC[C@H](C(=O)O)CC1`
Result: 103.742 % of ANP

Task: # query: Monkey NPR1 Amax (% of ANP) of entry `CC[C@H]([C@H]1CC[C@H](C(=O)O)CC1)N(C)c1nc2c(c(N[C@@H](CN3CCC[C@H](C)C3)c3cnn(C)c3)n1)CN(c1ccccc1F)CC2`
Result: 104.076 % of ANP

Task: Request the reported Monkey NPR1 Amax (% of ANP) associated with `CC[C@H]([C@H]1CC[C@H](C(=O)O)CC1)N(C)c1nc2c(c(N[C@@H](CN3C4CCCC3CC4)c3cnn(C)c3)n1)C[C@H](c1ccccc1F)CC2`
Result: 103.497 % of ANP

---

Target: UniProtKB A0A7N9DBT9
Experiment: Cellular cGMP production assay, monkey NPR1 expressing CHO-K1 cells (CisBio HTRF)
Type: cell-based
Conditions: maximum cGMP production as percentage of the maximum cGMP produced with ANP, monkey NPR1 CHO-K1 cells
reported metric: Monkey NPR1 Amax (% of ANP)

In the examples that follow, each entry is paired with its recorded Monkey NPR1 Amax (% of ANP).
CC[C@H]([C@H]1CC[C@H](C(=O)O)CC1)N(C)c1nc2c(c(N[C@@H](CN3CCCCC3)c3cnn(C)c3)n1)C[C@H](c1ccccc1)CC2 [Compound 118] ... 99.466 % of ANP
CC[C@@H](Nc1nc2c(c(N[C@@H](CN3CCCC4(CCOC4)C3)c3cnn(CC)c3)n1)C[C@H](c1ccccc1)CC2)[C@H]1CC[C@H](C(=O)O)CC1 (stereo partly drawn) [Compound 109] ... 115.338 % of ANP
CC[C@H]([C@H]1CC[C@H](C(=O)O)CC1)N(C)c1nc2c(c(N[C@@H](CN3C4CCCC3CC(O)C4)c3ccccc3)n1)C[C@H](c1ccccc1)CC2 (stereo partly drawn) [Compound 112] ... 97.009 % of ANP
CC[C@@H](Nc1nc2c(c(N[C@@H](CN3C4CCCC3CCC4)c3ccccc3)n1)C[C@H](c1ccccc1)CC2)[C@H]1CC[C@H](C(=O)O)CC1 [Compound 108] ... 99.706 % of ANP
CC[C@@H](Nc1nc2c(c(N[C@@H](CN3CCC[C@H](C)C3)c3cnn(C)c3)n1)C[C@](C)(c1cccc(F)c1)CC2)[C@H]1CC[C@H](C(=O)O)CC1 [Compound 2] ... 103.371 % of ANP
CC[C@H]([C@H]1CC[C@H](CC(=O)O)CC1)N(C)c1nc2c(c(N[C@@H](CN3CCC[C@H](C)C3)c3cnn(C)c3)n1)C[C@H](c1cccc(F)c1)CC2 [Compound 39] ... 97.588 % of ANP
CC[C@H]([C@H]1CC[C@H](C(=O)O)CC1)N(C)c1nc2c(c(N[C@@H](CN3CCCC4(CCOC4)C3)c3cnn(CC)c3)n1)C[C@H](c1ccccc1)CC2 (stereo partly drawn) [Compound 162] ... 89.971 % of ANP
CC[C@H]([C@H]1CC[C@H](C(=O)O)CC1)N(C)c1nc2c(c(N[C@@H](CN3CCCC(F)C3)c3cnn(C)c3)n1)C[C@H](c1ccccc1)CC2 (stereo partly drawn) [Compound 156] ... 105.900 % of ANP
CC[C@H]([C@H]1CC[C@H](C(=O)O)CC1)N(C)c1nc2c(c(NC(CN3CCC[C@H](C)C3)c3cnn(CF)c3)n1)C[C@H](c1ccccc1)CC2 (stereo partly drawn) [Compound 107] ... 100.163 % of ANP
CC[C@H]([C@H]1CC[C@H](C(=O)O)CC1)N(C)c1nc2c(c(N[C@@H](CN3CCCCC3)c3cnn(CC)c3)n1)C[C@@H](c1cccc(F)c1)CC2 [Compound 116] ... 104.029 % of ANP

Task: // lookup Monkey NPR1 Amax (% of ANP) | system=UniProtKB A0A7N9DBT9 | key= CC[C@@H](N(C)c1nc2c(c(N[C@@H](CN3C4CCCC3CCC4)c3cnn(C)c3)n1)C[C@H](c1cccc(F)c1)CC2)C12CC(C(=O)O)(C1)C2 [Compound 6]
Result: 98.535 % of ANP

Task: Please state recorded Monkey NPR1 Amax (% of ANP) (tested on UniProtKB A0A7N9DBT9) of CC[C@@H](Nc1nc2c(c(N[C@@H](CN3CCCCCC3)c3cnn(C)c3)n1)C[C@H](c1ccccc1)CC2)[C@H]1CC[C@H](C(=O)O)CC1 [Compound 51]
Result: 104.734 % of ANP

Task: What Monkey NPR1 Amax (% of ANP) appears in the records for this compound with UniProtKB A0A7N9DBT9? CC[C@@H](Nc1nc2c(c(N[C@@H](CN3CCCCC3)c3cnn(CC)c3)n1)C[C@H](c1ccccc1)CC2)[C@H]1CC[C@H](C(=O)O)CC1 [Compound 45]
Result: 99.911 % of ANP

Task: Notebook: pull reported Monkey NPR1 Amax (% of ANP) for UniProtKB A0A7N9DBT9, entry CC[C@H]([C@H]1CC[C@H](C(=O)O)CC1)N(C)c1nc2c(c(N[C@@H](CN3C4CCCC3COC4)c3cnn(C)c3)n1)C[C@H](c1ccccc1)CC2 [Compound 169]
Result: 96.574 % of ANP

Task: Could you share what Monkey NPR1 Amax (% of ANP) was measured for CCC(N(C)c1nc2c(c(N[C@@H](CN3C4CCCC3CCC4)c3cnn(C)c3)n1)C[C@H](c1ccccc1)CC2)C12CC(C(=O)O)(C1)C2 (stereo partly drawn) [Compound 74] , tested on UniProtKB A0A7N9DBT9?
Result: 117.270 % of ANP
